tested on: NCI-H1944; assay: relative viability (nuclei count vs DMSO), 5 days (fraction); higher = more cells survive; details: first compound 0.5 µM
Parameter relative viability: see the listing below.
Lab note: jot down the number only; don't add units.

As a guide, the following entries are already answered.
Nc1ccn([C@@H]2O[C@H](CO)[C@@H](O)[C@@H]2O)c(=O)n1 [Cytarabine] + CC(=O)Nc1cccc(-n2c(=O)n(C3CC3)c(=O)c3c(Nc4ccc(I)cc4F)n(C)c(=O)c(C)c32)c1 [Trametinib] (partner 0.02 µM) = 0.169
Nc1ccn([C@@H]2O[C@H](CO)[C@@H](O)[C@@H]2O)c(=O)n1 [Cytarabine] + Cc1nc(NC(=O)N2CCC[C@H]2C(N)=O)sc1-c1ccnc(C(C)(C)C(F)(F)F)c1 [Alpelisib] (partner 2 µM) = 0.144

For reference, reported relative viability for COc1cc2nccc(Oc3ccc(NC(=O)Nc4cc(C)on4)c(Cl)c3)c2cc1OC [Tivozanib] + Nc1ncn([C@H]2C[C@H](O)[C@@H](CO)O2)c(=O)n1 [Decitabine] (partner 2 µM) stands at 0.416

###

test system: LCLC-97TM1; test: relative viability (nuclei count vs DMSO), 5 days (fraction); higher = more cells survive; settings: first compound 4 µM
Parameter relative viability: see the listing below.

As a guide, the following entries are already answered.
Cc1sc2c(c1C)C(c1ccc(Cl)cc1)=N[C@@H](CC(=O)OC(C)(C)C)c1nnc(C)n1-2 [JQ1] + Nc1ncn([C@H]2C[C@H](O)[C@@H](CO)O2)c(=O)n1 [Decitabine] (partner 2 µM) = 0.125
Cc1sc2c(c1C)C(c1ccc(Cl)cc1)=N[C@@H](CC(=O)OC(C)(C)C)c1nnc(C)n1-2 [JQ1] + Nc1nc2[nH]cc(CCc3ccc(C(=O)N[C@@H](CCC(=O)O)C(=O)O)cc3)c2c(=O)[nH]1 [Pemetrexed] (partner 0.2 µM) = 0.0882

For reference, reported relative viability for Cc1sc2c(c1C)C(c1ccc(Cl)cc1)=N[C@@H](CC(=O)OC(C)(C)C)c1nnc(C)n1-2 [JQ1] + C[C@@H](Oc1cc(-c2cnn(C3CCNCC3)c2)cnc1N)c1c(Cl)ccc(F)c1Cl [Crizotinib] (partner 1 µM) stands at 0.117

For reference, reported relative viability for Cc1sc2c(c1C)C(c1ccc(Cl)cc1)=N[C@@H](CC(=O)OC(C)(C)C)c1nnc(C)n1-2 [JQ1] + NC(=O)Nc1cc(-c2cccc(F)c2)sc1C(=O)N[C@H]1CCCNC1 [AZD7762] (partner 0.2 µM) stands at 0.0653

###

Parameter relative viability: see the listing below.
tested on: NCI-H358; test: relative viability (nuclei count vs DMSO), 5 days (fraction); higher = more cells survive; conditions: first compound 0.000632 µM

For reference, reported relative viability for CC(=O)O[C@@]12CO[C@@H]1C[C@H](O)[C@@]1(C)C(=O)[C@H](O)C3=C(C)[C@@H](OC(=O)[C@H](O)[C@@H](NC(=O)OC(C)(C)C)c4ccccc4)C[C@@](O)([C@@H](OC(=O)c4ccccc4)[C@H]21)C3(C)C [Docetaxel] + Cc1nc(Nc2ncc(C(=O)Nc3c(C)cccc3Cl)s2)cc(N2CCN(CCO)CC2)n1 [Dasatinib] (partner 0.075 µM) stands at 0.179

For reference, reported relative viability for CC(=O)O[C@@]12CO[C@@H]1C[C@H](O)[C@@]1(C)C(=O)[C@H](O)C3=C(C)[C@@H](OC(=O)[C@H](O)[C@@H](NC(=O)OC(C)(C)C)c4ccccc4)C[C@@](O)([C@@H](OC(=O)c4ccccc4)[C@H]21)C3(C)C [Docetaxel] + C[C@]1(O)C[C@@H](c2nc(-c3ccc4ccc(-c5ccccc5)nc4c3)c3c(N)nccn32)C1 [Linsitinib] (partner 1 µM) stands at 0.371

For reference, reported relative viability for CC(=O)O[C@@]12CO[C@@H]1C[C@H](O)[C@@]1(C)C(=O)[C@H](O)C3=C(C)[C@@H](OC(=O)[C@H](O)[C@@H](NC(=O)OC(C)(C)C)c4ccccc4)C[C@@](O)([C@@H](OC(=O)c4ccccc4)[C@H]21)C3(C)C [Docetaxel] + Nc1ncn([C@H]2C[C@H](O)[C@@H](CO)O2)c(=O)n1 [Decitabine] (partner 2 µM) stands at 0.189

For reference, reported relative viability for CC(=O)O[C@@]12CO[C@@H]1C[C@H](O)[C@@]1(C)C(=O)[C@H](O)C3=C(C)[C@@H](OC(=O)[C@H](O)[C@@H](NC(=O)OC(C)(C)C)c4ccccc4)C[C@@](O)([C@@H](OC(=O)c4ccccc4)[C@H]21)C3(C)C [Docetaxel] + Cc1cc(Nc2cc(N3CCN(C)CC3)nc(Sc3ccc(NC(=O)C4CC4)cc3)n2)n[nH]1 [Tozasertib] (partner 0.1 µM) stands at 0.112

For reference, reported relative viability for CC(=O)O[C@@]12CO[C@@H]1C[C@H](O)[C@@]1(C)C(=O)[C@H](O)C3=C(C)[C@@H](OC(=O)[C@H](O)[C@@H](NC(=O)OC(C)(C)C)c4ccccc4)C[C@@](O)([C@@H](OC(=O)c4ccccc4)[C@H]21)C3(C)C [Docetaxel] + NC(=O)Nc1cc(-c2cccc(F)c2)sc1C(=O)N[C@H]1CCCNC1 [AZD7762] (partner 0.2 µM) stands at 0.328

###

system: NCI-H358; assay: relative viability (nuclei count vs DMSO), 5 days (fraction); higher = more cells survive; conditions: first compound 0.253 µM
# label = TRUE if relative viability < 0.3 else FALSE

Some solved entries appear below for comparison.
O=c1[nH]c2ccccc2n1C1CCN(CCCC(c2ccc(F)cc2)c2ccc(F)cc2)CC1 [Pimozide] + CS(=O)(=O)N1CCN(Cc2cc3nc(-c4cccc5[nH]ncc45)nc(N4CCOCC4)c3s2)CC1 [Pictilisib] (partner 1 µM) = FALSE
Cc1cnc(-c2cnc(NCCNc3ccc(C#N)cn3)nc2-c2ccc(Cl)cc2Cl)[nH]1 + Cc1nc(Nc2ncc(C(=O)Nc3c(C)cccc3Cl)s2)cc(N2CCN(CCO)CC2)n1 [Dasatinib] (partner 0.075 µM) = TRUE
Cc1cnc(-c2cnc(NCCNc3ccc(C#N)cn3)nc2-c2ccc(Cl)cc2Cl)[nH]1 + COc1cccc2cc(-c3nc([C@H]4CC[C@H](C(=O)O)CC4)n4ncnc(N)c34)[nH]c12 [OSI-027] (partner 0.5 µM) = FALSE
O=c1[nH]c2ccccc2n1C1CCN(CCCC(c2ccc(F)cc2)c2ccc(F)cc2)CC1 [Pimozide] + C[C@@H](Oc1cc(-c2cnn(C3CCNCC3)c2)cnc1N)c1c(Cl)ccc(F)c1Cl [Crizotinib] (partner 1 µM) = FALSE
O=c1[nH]c2ccccc2n1C1CCN(CCCC(c2ccc(F)cc2)c2ccc(F)cc2)CC1 [Pimozide] + COc1cc2c(Oc3ccc(NC(=O)C4(C(=O)Nc5ccc(F)cc5)CC4)cc3F)ccnc2cc1OCCCN1CCOCC1 [Foretinib] (partner 0.25 µM) = FALSE

// query Is the reported relative viability for Cc1cnc(-c2cnc(NCCNc3ccc(C#N)cn3)nc2-c2ccc(Cl)cc2Cl)[nH]1 + O=C(CCCCCCC(=O)Nc1ccccc1)NO [Vorinostat] (partner 1 µM) strictly below 0.3?
// result FALSE

// query Is the reported relative viability for O=c1[nH]c2ccccc2n1C1CCN(CCCC(c2ccc(F)cc2)c2ccc(F)cc2)CC1 [Pimozide] + CCNC(=O)c1noc(-c2cc(C(C)C)c(O)cc2O)c1-c1ccc(CN2CCOCC2)cc1 [Luminespib] (partner 0.01 µM) strictly below 0.3?
// result FALSE

// query Is the reported relative viability for Cc1cnc(-c2cnc(NCCNc3ccc(C#N)cn3)nc2-c2ccc(Cl)cc2Cl)[nH]1 + Nc1nc2[nH]cc(CCc3ccc(C(=O)N[C@@H](CCC(=O)O)C(=O)O)cc3)c2c(=O)[nH]1 [Pemetrexed] (partner 0.2 µM) strictly below 0.3?
// result TRUE

###

tested on: NCI-H647; experiment: relative viability (nuclei count vs DMSO), 5 days (fraction); higher = more cells survive; details: first compound 0.000632 µM
measureName: relative viability
Lab note: jot down the number only; don't add units.

As a guide, the following entries are already answered.
CC(=O)O[C@@]12CO[C@@H]1C[C@H](O)[C@@]1(C)C(=O)[C@H](O)C3=C(C)[C@@H](OC(=O)[C@H](O)[C@@H](NC(=O)OC(C)(C)C)c4ccccc4)C[C@@](O)([C@@H](OC(=O)c4ccccc4)[C@H]21)C3(C)C [Docetaxel] + Cc1nc(Nc2ncc(C(=O)Nc3c(C)cccc3Cl)s2)cc(N2CCN(CCO)CC2)n1 [Dasatinib] (partner 0.075 µM) = 0.132
CC(=O)O[C@@]12CO[C@@H]1C[C@H](O)[C@@]1(C)C(=O)[C@H](O)C3=C(C)[C@@H](OC(=O)[C@H](O)[C@@H](NC(=O)OC(C)(C)C)c4ccccc4)C[C@@](O)([C@@H](OC(=O)c4ccccc4)[C@H]21)C3(C)C [Docetaxel] + CC1(C)CCC(c2ccc(Cl)cc2)=C(CN2CCN(c3ccc(C(=O)NS(=O)(=O)c4ccc(N[C@H](CCN5CCOCC5)CSc5ccccc5)c(S(=O)(=O)C(F)(F)F)c4)cc3)CC2)C1 [Navitoclax] (partner 0.5 µM) = 0.597
CC(=O)O[C@@]12CO[C@@H]1C[C@H](O)[C@@]1(C)C(=O)[C@H](O)C3=C(C)[C@@H](OC(=O)[C@H](O)[C@@H](NC(=O)OC(C)(C)C)c4ccccc4)C[C@@](O)([C@@H](OC(=O)c4ccccc4)[C@H]21)C3(C)C [Docetaxel] + Cc1nc(NC(=O)N2CCC[C@H]2C(N)=O)sc1-c1ccnc(C(C)(C)C(F)(F)F)c1 [Alpelisib] (partner 2 µM) = 0.347
CC(=O)O[C@@]12CO[C@@H]1C[C@H](O)[C@@]1(C)C(=O)[C@H](O)C3=C(C)[C@@H](OC(=O)[C@H](O)[C@@H](NC(=O)OC(C)(C)C)c4ccccc4)C[C@@](O)([C@@H](OC(=O)c4ccccc4)[C@H]21)C3(C)C [Docetaxel] + CC(=O)c1c(C)c2cnc(Nc3ccc(N4CCNCC4)cn3)nc2n(C2CCCC2)c1=O [Palbociclib] (partner 0.5 µM) = 0.387

For reference, reported relative viability for CC(=O)O[C@@]12CO[C@@H]1C[C@H](O)[C@@]1(C)C(=O)[C@H](O)C3=C(C)[C@@H](OC(=O)[C@H](O)[C@@H](NC(=O)OC(C)(C)C)c4ccccc4)C[C@@](O)([C@@H](OC(=O)c4ccccc4)[C@H]21)C3(C)C [Docetaxel] + CS(=O)(=O)N1CCN(Cc2cc3nc(-c4cccc5[nH]ncc45)nc(N4CCOCC4)c3s2)CC1 [Pictilisib] (partner 1 µM) stands at 0.206

For reference, reported relative viability for CC(=O)O[C@@]12CO[C@@H]1C[C@H](O)[C@@]1(C)C(=O)[C@H](O)C3=C(C)[C@@H](OC(=O)[C@H](O)[C@@H](NC(=O)OC(C)(C)C)c4ccccc4)C[C@@](O)([C@@H](OC(=O)c4ccccc4)[C@H]21)C3(C)C [Docetaxel] + O=C(c1cc(Cc2n[nH]c(=O)c3ccccc23)ccc1F)N1CCN(C(=O)C2CC2)CC1 [Olaparib] (partner 8 µM) stands at 0.132

For reference, reported relative viability for CC(=O)O[C@@]12CO[C@@H]1C[C@H](O)[C@@]1(C)C(=O)[C@H](O)C3=C(C)[C@@H](OC(=O)[C@H](O)[C@@H](NC(=O)OC(C)(C)C)c4ccccc4)C[C@@](O)([C@@H](OC(=O)c4ccccc4)[C@H]21)C3(C)C [Docetaxel] + C[C@@H](Oc1cc(-c2cnn(C3CCNCC3)c2)cnc1N)c1c(Cl)ccc(F)c1Cl [Crizotinib] (partner 1 µM) stands at 0.319
